- Test Summary: Stability in human fecal homogenate
- Type: in vitro ADME
- Condition Set: 20% fecal homogenate (supernatant), pH 6.8, 20% human fecal homogenate, anaerobic, 37° C., read-out: t½: Human Feces anaerobic (converted)
Bridge positions count the residues as written; N and C are the ends. Square brackets hold non-standard residues; d marks the D form. Peptide text beside a SMILES is read from it. Trp(7-Me) = Cc1cccc2c(C[C@H](N)C(=O)O)c[nH]c12; 2Nal = N[C@@H](Cc1ccc2ccccc2c1)C(=O)O; AEF = NCCOc1ccc(C[C@H](N)C(=O)O)cc1; Cit = NC(=O)NCCC[C@H](N)C(=O)O; Pen = CC(C)(S)[C@H](N)C(=O)O; αMeK = C[C@](N)(CCCCN)C(=O)O
Reported Property: half-life at 20 μM

Molecule: CC(=O)NCCCC[C@@H]1NC(=O)[C@H](Cc2c[nH]c3c(C)cccc23)NC(=O)[C@H]([C@@H](C)O)NC(=O)[C@H](CCCNC(N)=O)NC(=O)[C@@H](NC(C)=O)C(C)(C)SSC(C)(C)[C@@H](C(=O)N[C@@H](Cc2ccc(OCCN)cc2)C(=O)N[C@@H](Cc2ccc3ccccc3c2)C(=O)N[C@@](C)(CCCCN)C(=O)N[C@@H](CCCCNC(C)=O)C(=O)N[C@@H](CC(N)=O)C(=O)N[C@H](CC(C)C)C(N)=O)NC1=O [compound 331] (Ac-[Pen][Cit]T[Trp(7-Me)]K(Ac)[Pen][AEF][2Nal][αMeK]K(Ac)N[dL]-NH2; disulfide 1-6)
Reported Property: half-life at 20 μM
Obs Value: > 24 h

Quick request: half-life at 20 μM for each listed item, please.
1. CC(=O)NCCCC[C@@H]1NC(=O)[C@H](Cc2c[nH]c3c(C)cccc23)NC(=O)[C@H]([C@@H](C)O)NC(=O)[C@H](CC(N)=O)NC(=O)[C@@H](NC(C)=O)C(C)(C)SSC(C)(C)[C@@H](C(=O)N[C@@H](Cc2ccc(OCCN)cc2)C(=O)N[C@@H](Cc2ccc3ccccc3c2)C(=O)N[C@@](C)(CCCCN)C(=O)N[C@@H](CCCCNC(C)=O)C(=O)N[C@@H](CC(N)=O)C(=O)N[C@H](Cc2ccccc2)C(N)=O)NC1=O
2. CC(=O)NCCCC[C@@H]1NC(=O)[C@H](Cc2c[nH]c3c(C)cccc23)NC(=O)[C@H]([C@@H](C)O)NC(=O)[C@H](CC(N)=O)NC(=O)[C@@H](NC(C)=O)C(C)(C)SSC(C)(C)[C@@H](C(=O)N[C@@H](Cc2ccc(OCCN)cc2)C(=O)N[C@@H](Cc2ccc3ccccc3c2)C(=O)N[C@@](C)(CCCCN)C(=O)N[C@@H](CCCCNC(=O)[C@H](C)N)C(=O)N[C@@H](CC(N)=O)C(=O)N[C@H](CC(C)C)C(N)=O)NC1=O
3. CC(=O)NCCCC[C@@H]1NC(=O)[C@H](Cc2c[nH]c3c(C)cccc23)NC(=O)[C@H]([C@@H](C)O)NC(=O)[C@H](CC(N)=O)NC(=O)[C@@H](NC(C)=O)C(C)(C)SSC(C)(C)[C@@H](C(=O)N[C@@H](Cc2ccc(OCCN)cc2)C(=O)N[C@@H](Cc2ccc3ccccc3c2)C(=O)N[C@@](C)(CCCCN)C(=O)N[C@@H](CCCCNC(=O)CC(C)C)C(=O)N[C@@H](CC(N)=O)C(=O)N[C@H](CC(C)C)C(N)=O)NC1=O

Result:
1. > 24 h
2. 12 h
3. > 24 h
